test system: OVCAR-5 ovarian; assay: NCI-60 one-dose screen, 48 h (100 = growth as untreated, 0 = no growth, -100 = all killed); conditions: 10 µM unless noted
This is part of a sample that, as a whole, favours compounds with a hit. Of some 83,000 tested, about 20% had one in any assay. The source made the active and inactive calls. Rule for the calls: active = growth percent below 10; inactive = the rest.
measured.property: growth

Problem: Which growth is listed for FC(F)(F)c1ccc2c(Nc3cccc(C4CC(c5ccccc5)=NN4c4ccc(Cl)cc4)c3)ccnc2c1 (stereo not given) ?
Solution: 95.5% (inactive)

Problem: Which growth is listed for `Nc1c(C(=O)Nc2ccccn2)sc2nc3c(cc12)CCCC3` ?
Solution: 77.6% (inactive)

Problem: Which growth is listed for `COC(=O)/C=C1\SC(=Nc2cccc(OC)c2)N(CCc2c[nH]c3ccccc23)C1=O` ?
Solution: 96% (inactive)

Problem: Which growth is listed for COc1cc(C2CC(c3ccc(Nc4nc(NCCO)nc(NCCO)n4)cc3)=NN2c2cc(Cl)cc(Cl)c2)cc(OC)c1OC (stereo not given) ?
Solution: 54.6% (inactive)

Problem: Which growth is listed for `CC[C@]12C=CCN3CC[C@@]4(c5cc(NC(=O)CCC(=O)O[C@H]6CC[C@H]7[C@@H]8CC[C@H]9CC(=O)CC[C@]9(C)[C@H]8CC[C@]67C)c(OC)cc5N(C)[C@H]4[C@@](O)(C(=O)OC)[C@@H]1OC(C)=O)[C@@H]32` ?
Solution: 104% (inactive)

Problem: Which growth is listed for `CC1=C(CCCOC(=O)NCCCl)C2=C(C)C3(CC3)[C@@](C)(O)C(=O)C2=C1` ?
Solution: 28.1% (inactive)

Problem: Which growth is listed for `CC(=O)c1c(OCC#N)ccc2c(C)cc(=O)oc12` ?
Solution: 114% (inactive)

Problem: Which growth is listed for `O=C(Nc1nc2ccc(C(F)(F)F)cc2s1)c1cc(Cl)ccc1O` ?
Solution: 28% (inactive)

Problem: Which growth is listed for `CN(C)CSc1nc2ccccc2s1` ?
Solution: 93.6% (inactive)

Problem: Which growth is listed for `C(=C\c1cn(-c2ccccc2)nc1-c1ccccc1)/c1nnc(-c2c[nH]c3ccccc23)o1` ?
Solution: 93.3% (inactive)

All values here come from PubChem BioAssay (NCI).
